Source: PubChem BioAssay

- method-description: E. coli acrAB mutant growth effects, primary screen, E. coli filamentation inducers, strain DRC39, OD650, 48 h (AID 1179);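 further: screen aims at cell division blockers that make cells filament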
- condition-details: E. coli DRC39 delta-acrAB growth, higher = more signal, called active from +8 up or from −8 down
Activity calls are given as the source filed them.
recorded-metric: z-score

Example cases with answers are listed next.
>>> observed_measurement("CC(C)CON=C1C[C@@H](O)[C@@H](O)[C@@H]2[C@@H]3C(=O)N(c4cccc(Oc5ccccc5)c4)C(=O)[C@@H]3CC[C@@H]12")
"-0.791 (inactive)"
>>> observed_measurement("COc1cccc([C@H]2Oc3ccc(OC)cc3C(=NO[C@H](C)c3cn([C@H](CO)Cc4ccccc4)nn3)[C@@H]2O)c1")
"0.571 (inactive)"

Request: Specify z-score for `CC(=O)OC[C@H]1O[C@H](C#Cc2ccccc2)C=C[C@@H]1OC(C)=O` and stop.
Response: 0.414 (inactive)

Request: # return recorded z-score for input `COC(=O)CC=C[C@@H](C)[C@@H](C=NO[C@@H](C)c1cc(-c2c(C)cc(C)cc2C)no1)NS(=O)(=O)c1ccc(C)cc1`
Response: -1.55 (inactive)

Request: Annotate the compound `CON=CC[C@@H]1C=C[C@H](OC(C)=O)[C@@H](COC(C)=O)O1` with its measured z-score.
Response: -1.17 (inactive)

Request: In one line, give reported z-score of the entry `O=C1C[C@@H](O)[C@@H](O)[C@@H]2[C@@H]3C(=O)N(c4cccc(Oc5ccccc5)c4)C(=O)[C@@H]3CC[C@H]12` .
Response: -0.389 (inactive)

Request: Could you please provide reported z-score for CCOC(=O)[C@H](Cc1ccccc1)NC(=O)CCC1CC(OC(=O)NCCc2ccc(F)cc2)CC2(CCCC(COC(=O)NCCCN3CCCC3=O)O2)O1 (stereo partly drawn) ? Thanks!
Response: -0.926 (inactive)

Request: Using the record for `Cc1cc2c(nc1C)CCCN2CC(O)CN1CCCc2nc(C)c(C)cc21` , state its measured z-score.
Response: -0.242 (inactive)
